Provenance of the data: the supplement of paper PMC11908140

B1: library; numbered along this chain (parent)
chain: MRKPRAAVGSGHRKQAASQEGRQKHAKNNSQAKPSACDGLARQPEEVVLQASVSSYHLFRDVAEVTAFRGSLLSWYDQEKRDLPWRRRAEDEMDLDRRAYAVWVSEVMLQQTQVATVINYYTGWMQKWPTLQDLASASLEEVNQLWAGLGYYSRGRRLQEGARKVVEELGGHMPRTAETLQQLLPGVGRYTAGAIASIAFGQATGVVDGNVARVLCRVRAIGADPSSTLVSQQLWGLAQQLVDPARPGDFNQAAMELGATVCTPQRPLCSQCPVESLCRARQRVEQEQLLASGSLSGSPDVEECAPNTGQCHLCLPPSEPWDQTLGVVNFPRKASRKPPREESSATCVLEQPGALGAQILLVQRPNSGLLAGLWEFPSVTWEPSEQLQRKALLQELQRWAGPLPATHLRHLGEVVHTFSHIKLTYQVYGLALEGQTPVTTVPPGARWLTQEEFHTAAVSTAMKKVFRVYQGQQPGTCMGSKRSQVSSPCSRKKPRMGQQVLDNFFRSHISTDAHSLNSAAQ

Variants of: B1
protocol_details: 8OG:A repair function score (normalized; synonymous = 0, nonsense = -1) (normalized log-likelihood score); higher = more repair activity (WT-like);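 note: cells sorted at 72 h after reporter transfection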
settings: with 8OG:A DNA repair reporter (GFP) in HEK-293 MUTYH KO cells
readout_type: 8OG:A repair function score

• C278E = -0.92
• W85D = -1.51
• E79K = 0.0062
• I421W = -0.59
• E382C = -0.16

The recorded 8OG:A repair function score for V211A is -0.477

The recorded 8OG:A repair function score for E178V is -0.12

The recorded 8OG:A repair function score for Q363W is -0.451

The recorded 8OG:A repair function score for K164S is -0.168

The recorded 8OG:A repair function score for C347H is -1.55

The recorded 8OG:A repair function score for L501C is -0.00326

The recorded 8OG:A repair function score for V274T is -0.241

The recorded 8OG:A repair function score for C489W is 0.0227

The recorded 8OG:A repair function score for R81E is -0.678

The recorded 8OG:A repair function score for R283L is -0.0781

The recorded 8OG:A repair function score for A196R is -0.93

The recorded 8OG:A repair function score for A51C is 0.0297

The recorded 8OG:A repair function score for G401V is -0.142

The recorded 8OG:A repair function score for E285D is -0.0239

The recorded 8OG:A repair function score for R219L is -0.542

The recorded 8OG:A repair function score for L277V is -0.0751
